Tested on: HL-60
Experiment: Inhibitory activity against LTB4 production in HL60s.
Type: functional, cell-based
Details: Homo sapiens
Quantity name: IC50 (nM)
Note: unit nM is implicit; provide only the numeric part.

I am curious: what IC50 value has been reported for CCCc1c(OCCCOc2ccc(-c3cscn3)c(OC)c2CC2CC2)ccc2c1OC(C(=O)O)CC2 (stereo in doubt; 35) ? 660

* * *

Molecular target: Leukotriene B4 receptor 1 (Homo sapiens, UniProt Q15722)
Sequence (Q15722 whole entry): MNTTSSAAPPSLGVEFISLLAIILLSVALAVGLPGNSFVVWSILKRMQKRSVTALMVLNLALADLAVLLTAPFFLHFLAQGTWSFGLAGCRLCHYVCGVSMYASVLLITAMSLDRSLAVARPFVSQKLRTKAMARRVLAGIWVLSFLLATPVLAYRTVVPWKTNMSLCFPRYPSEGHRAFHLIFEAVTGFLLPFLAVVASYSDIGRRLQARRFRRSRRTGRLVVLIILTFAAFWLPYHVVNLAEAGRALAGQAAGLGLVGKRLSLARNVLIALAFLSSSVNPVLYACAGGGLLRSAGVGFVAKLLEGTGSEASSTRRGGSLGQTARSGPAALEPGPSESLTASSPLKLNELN
Test: Binding affinity for Leukotriene B4 (LTB4) receptor
Exercise: for every item that follows, state its recorded pIC50.
To interpret pIC50, take it as minus log10 of a concentration measured in moles per litre.

Return reported pIC50; argument: CCCc1c(OCCCOc2ccc(-c3cscn3)c(OC)c2CCC)ccc2c1OC(CCC(=O)O)CC2 (centres undefined) 7.59

Item CCCc1c(OCCCOc2ccc(-c3csc(SC)n3)c(OC)c2CCC)ccc2c1OC(C(=O)O)CC2 (centres undefined) has what recorded pIC50? 5.55

Entry CCCc1c(OCCCOc2ccc(-c3csc(S)n3)c(OC)c2CCC)ccc2c1OC(C(=O)O)CC2 (centres undefined) : reported pIC50 = ? 6.05

Given CCCc1c(OCCCOc2ccc(-c3csc(OC)n3)c(OC)c2CCC)ccc2c1OC(C(=O)O)CC2 (centres undefined) , state its recorded pIC50. 5.94

Query (molecule): CCCc1c(OCCCOc2ccc(-c3ccno3)c(OC)c2CCC)ccc2c1OC(C(=O)O)CC2 (centres undefined) ; field requested: pIC50 6.11

What value of measured pIC50 is listed for CCCc1c(OCCCOc2ccc(-c3csc(SCc4ccccc4)n3)c(OC)c2CCC)ccc2c1OC(C(=O)O)CC2 (centres undefined) ? 5.24

Please look up its pIC50: CCCc1c(OCCCOc2ccc(-c3cscn3)c(OC)c2CCC)ccc2c1OC(C(=O)O)CC2 (centres undefined) 7.03

What measured pIC50 goes with C=CCc1c(OCCCOc2ccc3c(c2CCC)OC(C(=O)O)CC3)ccc(-c2cscn2)c1OC (centres undefined) ? 7.60

Form field: reported pIC50 of CCCc1c(OCCCOc2ccc(-c3cocn3)c(OC)c2CCC)ccc2c1OC(C(=O)O)CC2 (centres undefined) 7.00

* * *

Species: Homo sapiens
Assay: Tested for the ability to inhibit Leukotriene B4 (LTB4) induced chemotaxis. (Test compound added to upper and lower wells.)
Format: functional, organism-based
Quantity name: IC50 (nM)
Give just the numeric value; nM need not be written.

What IC50 value was documented for this compound, CCCc1c(OCCCOc2ccc(-c3cscn3)c(OC)c2CC2CC2)ccc2c1OC(C(=O)O)CC2 (stereo in doubt; 35) ? 89

* * *

Molecular target: Leukotriene B4 receptor (Homo sapiens, UniProt Q9NPC1+Q15722)
Assay: Inhibition of Leukotriene B4 (LTB4) induced chemotaxis.
Type: functional
Quantity name: log10 IC50 (log10 of the value in µM)
Base-10 log of IC50, unit µM.

Could you share which log10 IC50 value was measured for CCCc1c(OCCCOc2ccc(-c3cscn3)c(OC)c2CCC)ccc2c1OC(C(=O)O)CC2 (centres undefined) ? -0.54

# get_value(readout='log10 IC50', item= CCCc1c(OCCCOc2ccc(-c3cocn3)c(OC)c2CCC)ccc2c1OC(C(=O)O)CC2 (centres undefined) ) -0.37

Recorded log10 IC50 of CCCc1c(OCCCOc2ccc(-c3csc(SC)n3)c(OC)c2CCC)ccc2c1OC(C(=O)O)CC2 (centres undefined) , please. 1.27

Given the molecule CCCc1c(OCCCOc2ccc(-c3csc(N)n3)c(OC)c2CCC)ccc2c1OC(C(=O)O)CC2 (centres undefined) , what is its reported log10 IC50? 0.18

Consider the molecule shown here: CCCc1c(OCCCOc2ccc(-c3ccno3)c(OC)c2CCC)ccc2c1OC(C(=O)O)CC2 (centres undefined) What is its recorded log10 IC50? 0.20

Tell me the measured log10 IC50 of CCCc1c(OCCCOc2ccc(-c3cc[nH]n3)c(OC)c2CCC)ccc2c1OC(C(=O)O)CC2 (centres undefined) , please. 0.08

Request the reported log10 IC50 associated with CCCc1c(OCCCOc2ccc(-c3cscn3)c(OC)c2CCC)ccc2c1OC(CCC(=O)O)CC2 (centres undefined) 0.19

log10 IC50 for CCCc1c(OCCCOc2ccc(C(N)=O)c(OC)c2CCC)ccc2c1OC(C(=O)O)CC2 (centres undefined) ? -0.46

Could you share which log10 IC50 value was measured for CCCc1c(OCCCOc2ccc(-c3c[nH]cn3)c(OC)c2CCC)ccc2c1OC(C(=O)O)CC2 (centres undefined) ? 0.08

# log10 IC50 lookup, item CCCc1c(OCCCOc2ccc(-c3csc(S)n3)c(OC)c2CCC)ccc2c1OC(C(=O)O)CC2 (centres undefined) -0.28

I'd like to know its log10 IC50. The molecule in question is C=CCc1c(OCCCOc2ccc3c(c2CCC)OC(C(=O)O)CC3)ccc(-c2cscn2)c1OC (centres undefined) -0.96

* * *

Target: UniProtKB Q15722
Assay: Binding affinity for Leukotriene B4 (LTB4) receptor
Quantity name: pIC50
Lab note — pIC50 values are minus log10 of concentrations in M.

May I ask what pIC50 has been recorded for CCCc1c(OCCCOc2ccc(C(N)=O)c(OC)c2CCC)ccc2c1OC(C(=O)O)CC2 (stereo not given) ? 6.85

What value of pIC50 has been reported for the following compound? CCCc1c(OCCCOc2ccc(-c3c[nH]cn3)c(OC)c2CCC)ccc2c1OC(C(=O)O)CC2 (stereo not given) 6.28

Endpoint output: pIC50 of CCCc1c(OCCCOc2ccc(-c3cc[nH]n3)c(OC)c2CCC)ccc2c1OC(C(=O)O)CC2 (stereo not given) . Value? 6.21

// pIC50 lookup, key: CCCc1c(OCCCOc2ccc(-c3csc(N)n3)c(OC)c2CCC)ccc2c1OC(C(=O)O)CC2 (stereo not given) 6.49

So what's the measured pIC50 for this one? CCCc1c(OCCCOc2ccc(-c3coc(C)n3)c(OC)c2CCC)ccc2c1OC(C(=O)O)CC2 (stereo not given) 5.96

* * *

Target: Leukotriene B4 receptor 1 (Homo sapiens)
Test: Binding affinity towards Leukotriene B4 (LTB4) Receptor. Experiment conducted in the absence of NDGA.
Quantity name: pIC50
Bear in mind: pIC50 is minus log10 of a mol/L concentration; give just that figure.

Recorded pIC50 of CCCc1c(OCCCOc2ccc(-c3cscn3)c(OC)c2CC2CC2)cccc1OCC(=O)O , please. 7.81

Given the compound CCCc1c(OCCCOc2ccc(-c3c[nH]c(SCc4ccccc4)n3)c(OC)c2CCC)ccc2c1OC(C(=O)O)CC2 (centres undefined) , what is its reported pIC50? 6.12

Bench note: what pIC50 did CCCc1c(OCCCOc2ccc(-c3c[nH]nn3)c(OC)c2CCC)ccc2c1OC(C(=O)O)CC2 (centres undefined) show? 8.28

Return reported pIC50; argument: CCCc1c(OCCCOc2ccc(-c3cscn3)c(OC)c2CC2CC2)ccc2c1OC(CCC(=O)O)CC2 (centres undefined) 7.91

* * *

System: HL-60
Assay: Inhibitory activity against PGE-2 production in HL60s.
Format: functional, cell-based
Conditions: Homo sapiens
Quantity name: pIC50
API: returns pIC50 as number; meaning -log10 of concentration in mol/L.

For the compound shown here, CCCc1c(OCCCOc2ccc(-c3cscn3)c(OC)c2CC2CC2)ccc2c1OC(C(=O)O)CC2 (stereo in doubt; 35) , give the reported pIC50. 6.03

* * *

Species on record: Homo sapiens
Assay: Tested for the ability to inhibit Leukotriene B4 (LTB4) induced chemotaxis. Test compound added to upper and lower wells.
Assay type: functional, organism-based
Quantity name: IC50 (nM)
Give the number; nM is assumed, so skip it.

Returns the measured IC50 for the input compound. Input: CCCc1c(OCCCOc2ccc(-c3cscn3)c(OC)c2CC2CC2)cccc1OCC(=O)O 360

Value lookup for IC50; key = CCCc1c(OCCCOc2ccc(-c3c[nH]nn3)c(OC)c2CCC)ccc2c1OC(C(=O)O)CC2 (centres undefined) 88

Bench note: what IC50 did CCCc1c(OCCCOc2ccc(-c3cscn3)c(OC)c2CC2CC2)ccc2c1OC(CCC(=O)O)CC2 (centres undefined) show? 49

# get_value(readout='IC50', item= CCCc1c(OCCCOc2ccc(-c3c[nH]c(SCc4ccccc4)n3)c(OC)c2CCC)ccc2c1OC(C(=O)O)CC2 (centres undefined) ) 430

* * *

Can you tell me IC50 for the items I'm about to list?
Molecular target: Leukotriene B4 receptor (Homo sapiens, UniProt Q9NPC1+Q15722)
Test: Inhibition of Leukotriene B4 (LTB4) induced chemotaxis.
Type: functional

Return reported IC50; argument: CCCc1c(OCCCOc2ccc(-c3coc(C)n3)c(OC)c2CCC)ccc2c1OC(C(=O)O)CC2 (stereo not drawn) > 10 µM

Given the compound CCCc1c(OCCCOc2ccc(-c3csc(OC)n3)c(OC)c2CCC)ccc2c1OC(C(=O)O)CC2 (stereo not drawn) , what is its reported IC50? > 10 µM

Item under review: CCCc1c(OCCCOc2ccc(-c3csc(SCc4ccccc4)n3)c(OC)c2CCC)ccc2c1OC(C(=O)O)CC2 (stereo not drawn) . Reported IC50? > 10 µM
